Tested on: HeLa Kyoto
Test: solubility change mitosis vs G1/S (difference of NP-40 vs SDS log2 ratios) (log2 ratio difference); higher = more soluble in mitosis
Give measured solubility change mitosis (log2) for each item. Keep answers brief.
Give bare numbers.

Monomer Sequence | solubility change mitosis (log2)
MASQNRDPAATSVAAARKGAEPSGGAARGPVGKRLQQELMTLMMSGDKGISAFPESDNLFKWVGTIHGAAGTVYEDLRYKLSLEFPSGYPYNAPTVKFLTPCYHPNVDTQGNICLDILKEKWSALYDVRTILLSIQSLLGEPNIDSPLNTHAAELWKNPTAFKKYLQETYSKQVTSQEP [UBE2C] | 0.955

Next, consider the following sequence.
Query: Item MSSPSPGKRRMDTDVVKLIESKHEVTILGGLNEFVVKFYGPQGTPYEGGVWKVRVDLPDKYPFKSPSIGFMNKIFHPNIDEASGTVCLDVINQTWTALYDLTNIFESFLPQLLAYPNPIDPLNGDAAAMYLHRPEEYKQKIKEYIQKYATEEALKEQEEGTGDSSSESSMSDFSEDEAQDMEL [UBE2H] has what recorded solubility change mitosis (log2)?
Result: -0.126

* * *

System: HeLa Kyoto
Test: thermal stability score vs G1/S (z-score of summed log2 fold changes over temperatures); higher = more thermally stable than in G1/S
Assay Context: cell cycle stage: mitosis
Endpoint Label: thermal stability score
Give bare numbers.

Monomer Sequence | thermal stability score
MAYPGHPGAGGGYYPGGYGGAPGGPAFPGQTQDPLYGYFAAVAGQDGQIDADELQRCLTQSGIAGGYKPFNLETCRLMVSMLDRDMSGTMGFNEFKELWAVLNGWRQHFISFDTDRSGTVDPQELQKALTTMGFRLSPQAVNSIAKRYSTNGKITFDDYIACCVKLRALTDSFRRRDTAQQGVVNFPYDDFIQCVMSV [SRI] | -2.35
MRPVRLMKVFVTRRIPAEGRVALARAADCEVEQWDSDEPIPAKELERGVAGAHGLLCLLSDHVDKRILDAAGANLKVISTMSVGIDHLALDEIKKRGIRVGYTPDVLTDTTAELAVSLLLTTCRRLPEAIEEVKNGGWTSWKPLWLCGYGLTQSTVGIIGLGRIGQAIARRLKPFGVQRFLYTGRQPRPEEAAEFQAEFVSTPELAAQSDFIVVACSLTPATEGLCNKDFFQKMKETAVFINISRGDVVNQDDLYQALASGKIAAAGLDVTSPEPLPTNHPLLTLKNCVILPHIGSATHRTRNTMSLLAANNLLAGLRGEPMPSELKL [GRHPR] | 0.371
MAEQATKSVLFVCLGNICRSPIAEAVFRKLVTDQNISENWRVDSAATSGYEIGNPPDYRGQSCMKRHGIPMSHVARQITKEDFATFDYILCMDESNLRDLNRKSNQVKTCKAKIELLGSYDPQKQLIIEDPYYGNDSDFETVYQQCVRCCRAFLEKAH [ACP1] | -0.21

For every item in the list below, what is its measured thermal stability score?
1. MTGQGQSASGSSAWSTVFRHVRYENLIAGVSGGVLSNLALHPLDLVKIRFAVSDGLELRPKYNGILHCLTTIWKLDGLRGLYQGVTPNIWGAGLSWGLYFFFYNAIKSYKTEGRAERLEATEYLVSAAEAGAMTLCITNPLWVTKTRLMLQYDAVVNSPHRQYKGMFDTLVKIYKYEGVRGLYKGFVPGLFGTSHGALQFMAYELLKLKYNQHINRLPEAQLSTVEYISVAALSKIFAVAATYPYQVVRARLQDQHMFYSGVIDVITKTWRKEGVGGFYKGIAPNLIRVTPACCITFVVYENVSHFLLDLREKRK [SLC25A32]
2. MAAPLELSCWGGGWGLPSVHSESLVVMAYAKFSGAPLKVNVIDNTWRGSRGDVPILTTEDDMVSQPAKILNFLRKQKYNADYELSAKQGADTLAYIALLEEKLLPAVLHTFWVESDNYFTVTKPWFASQIPFPLSLILPGRMSKGALNRILLTRGQPPLYHLREVEAQIYRDAKECLNLLSNRLGTSQFFFGDTPSTLDAYVFGFLAPLYKVRFPKVQLQEHLKQLSNLCRFCDDILSSYFRLSLGGISPAGQETVDANLQKLTQLVNKESNLIEKMDDNLRQSPQLPPRKLPTLKLTPAEEENNSFQRLSP [MTX3]
3. MSDSGEQNYGERESRSASRSGSAHGSGKSARHTPARSRSKEDSRRSRSKSRSRSESRSRSRRSSRRHYTRSRSRSRSHRRSRSRSYSRDYRRRHSHSHSPMSTRRRHVGNRANPDPNCCLGVFGLSLYTTERDLREVFSKYGPIADVSIVYDQQSRRSRGFAFVYFENVDDAKEAKERANGMELDGRRIRVDFSITKRPHTPTPGIYMGRPTYGSSRRRDYYDRGYDRGYDDRDYYSRSYRGGGGGGGGWRAAQDRDQIYRRRSPSPYYSRGGYRSRSRSRSYSPRRY [TRA2B]

Result:
0.155
-1.18
-4.47

* * *

System: HeLa Kyoto
Test: thermal stability score vs G1/S (z-score of summed log2 fold changes over temperatures); higher = more thermally stable than in G1/S
Assay Context: cell cycle stage: mitosis
Tick met if thermal stability score is -1 or greater. Tick not met if thermal stability score is less than -1.

Query: Identify whether the reported thermal stability score of the following sequence is -1 or greater: MDGLLNPRESSKFIAENSRDVFIDSGGVRRVAELLLAKAAGPELRVEGWKALHELNPRAADEAAVNWVFVTDTLNFSFWSEQDEHKCVVRYRGKTYSGYWSLCAAVNRALDEGIPITSASYYATVTLDQVRNILRSDTDVSMPLVEERHRILNETGKILLEKFGGSFLNCVRESENSAQKLMHLVVESFPSYRDVTLFEGKRVSFYKRAQILVADTWSVLEGKGDGCFKDISSITMFADYRLPQVLAHLGALKYSDDLLKKLLKGEMLSYGDRQEVEIRGCSLWCVELIRDCLLELIEQKGEKPNGEINSILLDYYLWDYAHDHREDMKGIPFHRIRCIYY [C9ORF64]
Result: met

Query: Identify whether the reported thermal stability score of the following sequence is -1 or greater: MNCRSEVLEVSVEGRQVEEAMLAVLHTVLLHRSTGKFHYKKEGTYSIGTVGTQDVDCDFIDFTYVRVSSEELDRALRKVVGEFKDALRNSGGDGLGQMSLEFYQKKKSRWPFSDECIPWEVWTVKVHVVALATEQERQICREKVGEKLCEKIINIVEVMNRHEYLPKMPTQSEVDNVFDTGLRDVQPYLYKISFQITDALGTSVTTTMRRLIKDTLAL [ATG101]
Result: met

Query: Identify whether the reported thermal stability score of the following sequence is -1 or greater: MAGPRVEVDGSIMEGGGQILRVSTALSCLLGLPLRVQKIRAGRSTPGLRPQHLSGLEMIRDLCDGQLEGAEIGSTEITFTPEKIKGGIHTADTKTAGSVCLLMQVSMPCVLFAASPSELHLKGGTNAEMAPQIDYTVMVFKPIVEKFGFIFNCDIKTRGYYPKGGGEVIVRMSPVKQLNPINLTERGCVTKIYGRAFVAGVLPFKVAKDMAAAAVRCIRKEIRDLYVNIQPVQEPKDQAFGNGNGIIIIAETSTGCLFAGSSLGKRGVNADKVGIEAAEMLLANLRHGGTVDEYLQDQLIVFMALANGVSRIKTGPVTLHTQTAIHFAEQIAKAKFIVKKSEDEEDAAKDTYIIECQGIGMTNPNL [RTCA]
Result: not met

Query: Identify whether the reported thermal stability score of the following sequence is -1 or greater: MLEEDMEVAIKMVVVGNGAVGKSSMIQRYCKGIFTKDYKKTIGVDFLERQIQVNDEDVRLMLWDTAGQEEFDAITKAYYRGAQACVLVFSTTDRESFEAVSSWREKVVAEVGDIPTVLVQNKIDLLDDSCIKNEEAEALAKRLKLRFYRTSVKEDLNVNEVFKYLAEKYLQKLKQQIAEDPELTHSSSNKIGVFNTSGGSHSGQNSGTLNGGDVINLRPNKQRTKKNRNPFSSCSIP [RAB23]
Result: met

* * *

Give measured solubility change mitosis (log2) for each item. Keep answers brief.
Tested on: HeLa Kyoto
Test: solubility change mitosis vs G1/S (difference of NP-40 vs SDS log2 ratios) (log2 ratio difference); higher = more soluble in mitosis
One number for each entry.

Observe how each entry below is paired with its result.
Monomer Sequence | Endpoint Label | Assay Value
MVLSELAARLNCAEYKNWVKAGHCLLLLRSCLQGFVGREVLSFHRGLLAAAPGLGPRAVCRGGSRCSPRARQFQPQCQVCAEWKREILRHHVNRNGDVHWGNCRPGRWPVDAWEVAKAFMPRGLADKQGPEECDAVALLSLINSCDHFVVDRKKVTEVIKCRNEIMHSSEMKVSSTWLRDFQMKIQNFLNEFKNIPEIVAVYSRIEQLLTSDWAVHIPEEDQRDGCECEMGTYLSESQVNEIEMQLLKEKLQEIYLQAEEQEVLPEELSNRLEVVKEFLRNNEDLRNGLTEDMQKLDSLCLHQKLDSQEPGRQTPDRKA [CXORF38] | solubility change mitosis (log2) | -0.0263
MRSARSTALNRGEQRAVRYYSHMKLNMAEEEDYMSDSFINVQEDIRPGLPMLRQIREARRKEEKQQEANLKNRQKSLKEEEQERRDIGLKNALGCENKGFALLQKMGYKSGQALGKSGGGIVEPIPLNIKTGKSGIGHEASLKRKAEEKLESYRKKIHMKNQAEEKAAEQFRMRLKNKQDEMKLEGDLRRSQRACQQLDVQKNIQVPREAWYWLRLEEETEEDEEEKEQDEDEYKSEDLSVLEKLQILTSYLREEHLYCIWCGTAYEDKEDLSSNCPGPTSADHD [GPATCH11] | solubility change mitosis (log2) | 0.138
MKLLRRAWRRRAALGLGTLALCGAALLYLARCAAEPGDPRAMSGRSPPPPAPARAAAFLAVLVASAPRAAERRSVIRSTWLARRGAPGDVWARFAVGTAGLGAEERRALEREQARHGDLLLLPALRDAYENLTAKVLAMLAWLDEHVAFEFVLKADDDSFARLDALLAELRAREPARRRRLYWGFFSGRGRVKPGGRWREAAWQLCDYYLPYALGGGYVLSADLVHYLRLSRDYLRAWHSEDVSLGAWLAPVDVQREHDPRFDTEYRSRGCSNQYLVTHKQSLEDMLEKHATLAREGRLCKREVQLRLSYVYDWSAPPSQCCQRREGIP [B3GALT6] | solubility change mitosis (log2) | 0.135
MSANEDQEMELEALRSIYEGDESFRELSPVSFQYRIGENGDPKAFLIEISWTETYPQTPPILSMNAFFNNTISSAVKQSILAKLQEAVEANLGTAMTYTLFEYAKDNKEQFMENHNPINSATSISNIISIETPNTAPSSKKKDKKEQLSKAQKRKLADKTDHKGELPRGWNWVDVVKHLSKTGSKDDE [RWDD4] | solubility change mitosis (log2) | 0.301

Query: Item MAELDIGQHCQVEHCRQRDFLPFVCDDCSGIFCLEHRSRESHGCPEVTVINERLKTDQHTSYPCSFKDCAERELVAVICPYCEKNFCLRHRHQSDHECEKLEIPKPRMAATQKLVKDIIDSKTGETASKRWKGAKNSETAAKVALMKLKMHADGDKSLPQTERIYFQVFLPKGSKEKSKPMFFCHRWSIGKAIDFAASLARLKNDNNKFTAKKLRLCHITSGEALPLDHTLETWIAKEDCPLYNGGNIILEYLNDEEQFCKNVESYLE [ZFAND1] has what recorded solubility change mitosis (log2)?
Result: -0.173
